# testDescription: The drug is tested on WLS-170 corresponding to human gut metagenome with ENA study accession number: PRJEB37062 and ENA sample accession number: ERS12561762 for biotransformation under anaerobic condition. The drug concentrations were measured over 9 timepoints collected between 0 and 24 hours of incubation by liquid-chromatography-coupled mass spectrometry (LC–MS); also: call rule not given here
# runParameters: 2 µM
measuredAttribute: Bacterial Biotransformation

{"columns": ["compound", "measurement"],
 "data": [
  ["CCOC(=O)[C@H](CCc1ccccc1)N[C@@H](C)C(=O)N1CCC[C@H]1C(=O)O.O=C(O)/C=C\\C(=O)O [ENALAPRIL MALEATE]", "Compound NOT metabolized"],
  ["COc1cc2nc(N3CCN(C(=O)C4CCCO4)CC3)nc(N)c2cc1OC (configuration not stated)", "Compound NOT metabolized"],
  ["COc1ccccc1OCCNCC(O)COc1cccc2[nH]c3ccccc3c12 (configuration not stated)", "Compound metabolized"],
  ["CNNCc1ccc(C(=O)NC(C)C)cc1", "Compound metabolized"],
  ["Br.CN1CCC[C@@H]1Cc1c[nH]c2ccc(CCS(=O)(=O)c3ccccc3)cc12 [ELETRIPTAN HYDROBROMIDE]", "Compound metabolized"],
  ["N#Cc1ccc2[nH]cc(CCCCN3CCN(c4ccc5oc(C(N)=O)cc5c4)CC3)c2c1", "Compound metabolized"],
  ["CC(C)c1nc(N(C)S(C)(=O)=O)nc(-c2ccc(F)cc2)c1/C=C/[C@@H](O)C[C@@H](O)CC(=O)[O-].CC(C)c1nc(N(C)S(C)(=O)=O)nc(-c2ccc(F)cc2)c1/C=C/[C@@H](O)C[C@@H](O)CC(=O)[O-].[Ca+2]", "Compound metabolized"],
  ["Nc1nc(N)nc(-c2cc(Cl)ccc2Cl)n1.O=C(O)/C=C\\C(=O)O [IRSOGLADINE MALEATE]", "Compound NOT metabolized"]
]}

Incoming: Fill in the blank: the reported Bacterial Biotransformation of O=P1(N(CCCl)CCCl)NCCCO1 (configuration not stated) [CYCLOPHOSPHAMIDE ANHYDROUS] is ____.
Outgoing: Compound metabolized

Incoming: Fill in the blank: the reported Bacterial Biotransformation of CN1CCC[C@@H]1CCO[C@](C)(c1ccccc1)c1ccc(Cl)cc1.O=C(O)/C=C/C(=O)O [CLEMASTINE FUMARATE] is ____.
Outgoing: Compound metabolized

Incoming: Fill in the blank: the reported Bacterial Biotransformation of CCCN1C[C@H](CSC)C[C@@H]2c3cccc4[nH]cc(c34)C[C@H]21.CS(=O)(=O)O [PERGOLIDE MESYLATE] is ____.
Outgoing: Compound NOT metabolized

Incoming: Fill in the blank: the reported Bacterial Biotransformation of "O=C1CC2(CCCC2)CC(=O)N1CCCCN1CCN(c2ncccn2)CC1" is ____.
Outgoing: Compound metabolized

Incoming: Fill in the blank: the reported Bacterial Biotransformation of CC(N)C12CC3CC(CC(C3)C1)C2 (configuration not stated) is ____.
Outgoing: Compound metabolized

Incoming: Fill in the blank: the reported Bacterial Biotransformation of "CCc1oc2ccccc2c1C(=O)c1cc(Br)c(O)c(Br)c1" is ____.
Outgoing: Compound metabolized

Incoming: Fill in the blank: the reported Bacterial Biotransformation of CN(C)CCC=C1c2ccccc2COc2ccccc21 [DOXEPIN] is ____.
Outgoing: Compound metabolized

Incoming: Fill in the blank: the reported Bacterial Biotransformation of O=C1C(CC[S+]([O-])c2ccccc2)C(=O)N(c2ccccc2)N1c1ccccc1 (configuration not stated) is ____.
Outgoing: Compound metabolized
